- measured_target: T1, huCD46-His (human, UniProt P15529 35-343)
- T1 construct: extracellular domain; Immobilised by amine coupling on the SPR chip; It may be the same protein as the ELISA antigen; also called Human CD46-His; human CD46; not shown: His tag
- T1 sequence (looked up): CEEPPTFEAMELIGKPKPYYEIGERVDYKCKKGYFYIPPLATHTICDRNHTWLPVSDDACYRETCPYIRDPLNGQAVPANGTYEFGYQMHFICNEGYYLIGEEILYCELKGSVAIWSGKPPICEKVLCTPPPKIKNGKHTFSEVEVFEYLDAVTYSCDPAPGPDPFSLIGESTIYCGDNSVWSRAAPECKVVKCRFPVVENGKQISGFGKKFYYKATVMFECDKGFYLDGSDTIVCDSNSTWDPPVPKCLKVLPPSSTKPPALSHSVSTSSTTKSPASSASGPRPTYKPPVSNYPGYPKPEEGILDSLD
- method: SPR, huCD46-His immobilised, antibody as analyte, pH 6.0
List of koff values.

binder	koff [s⁻¹]
BA-133-04-03 (antibody, V domains shown, also called CPE hit BA133-04-03) VH: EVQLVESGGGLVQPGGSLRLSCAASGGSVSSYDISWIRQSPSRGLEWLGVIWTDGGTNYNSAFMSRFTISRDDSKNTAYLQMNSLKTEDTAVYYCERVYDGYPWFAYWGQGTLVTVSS VL: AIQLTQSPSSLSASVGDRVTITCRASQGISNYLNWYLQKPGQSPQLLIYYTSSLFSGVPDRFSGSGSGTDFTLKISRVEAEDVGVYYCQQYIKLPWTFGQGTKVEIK	0.00179
BAP133-2-02-12 (antibody, V domains shown, also called BAP133-02-02-12; CPE hit BAP133-2-02-12) VH: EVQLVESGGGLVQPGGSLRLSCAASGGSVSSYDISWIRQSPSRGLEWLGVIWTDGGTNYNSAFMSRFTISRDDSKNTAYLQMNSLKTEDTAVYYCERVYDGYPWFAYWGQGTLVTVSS VL: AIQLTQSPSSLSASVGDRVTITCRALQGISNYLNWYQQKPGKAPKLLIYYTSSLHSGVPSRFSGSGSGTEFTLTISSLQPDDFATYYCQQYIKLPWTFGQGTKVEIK	0.00404
BAP133-2-03-03-SL (antibody, V domains shown, the killing assays used the ADC form; also called BAP133-02-03-03-SL; CPE hit BAP133-2-03-03-SL) VH: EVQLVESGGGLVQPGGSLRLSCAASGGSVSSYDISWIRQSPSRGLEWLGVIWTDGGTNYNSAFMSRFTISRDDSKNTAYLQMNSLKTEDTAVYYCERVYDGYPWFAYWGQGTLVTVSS VL: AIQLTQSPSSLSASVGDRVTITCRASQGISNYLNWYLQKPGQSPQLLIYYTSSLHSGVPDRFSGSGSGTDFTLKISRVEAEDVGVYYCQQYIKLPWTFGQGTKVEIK	0.000915
Benchmark (BM) BA-133-00-01 (antibody, V domains shown, the killing assays used the ADC form; Conjugation site and payload are not described; also called BM (bench mark)) VH: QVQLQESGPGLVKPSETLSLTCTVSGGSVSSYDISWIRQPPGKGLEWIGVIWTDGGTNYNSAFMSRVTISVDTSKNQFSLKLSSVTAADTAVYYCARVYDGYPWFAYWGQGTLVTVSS VL: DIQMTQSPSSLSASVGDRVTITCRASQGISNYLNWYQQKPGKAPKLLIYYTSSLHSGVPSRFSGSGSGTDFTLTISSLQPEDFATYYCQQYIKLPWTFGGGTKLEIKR	0.00158

These data points were gathered from patent US20230242662A1.
